Target: panel of 203 kinases (Homo sapiens)
Construct: purchased DiscoverX (KINOMEscan)
Sequence (P42685 whole entry): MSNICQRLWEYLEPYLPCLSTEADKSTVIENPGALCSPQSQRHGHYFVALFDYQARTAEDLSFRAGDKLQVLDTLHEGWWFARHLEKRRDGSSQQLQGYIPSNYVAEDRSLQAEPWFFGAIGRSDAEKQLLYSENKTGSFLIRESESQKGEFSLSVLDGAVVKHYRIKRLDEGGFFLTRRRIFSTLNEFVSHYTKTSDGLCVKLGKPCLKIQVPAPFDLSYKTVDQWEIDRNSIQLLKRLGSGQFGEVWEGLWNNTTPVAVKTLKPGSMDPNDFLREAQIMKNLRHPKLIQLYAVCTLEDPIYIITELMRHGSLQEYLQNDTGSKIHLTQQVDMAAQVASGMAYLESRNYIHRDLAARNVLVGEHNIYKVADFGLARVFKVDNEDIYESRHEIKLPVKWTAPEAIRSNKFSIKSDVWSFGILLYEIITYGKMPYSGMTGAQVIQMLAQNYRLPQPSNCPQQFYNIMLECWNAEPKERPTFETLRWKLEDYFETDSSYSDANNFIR
Assay: KINOMEscan competitive binding, whole panel
Settings: 10 µM, n=1; kinase FRK; read-out: Percent inhibition FRK
Text: The kinases were expressed as fusions to T7 bacteriophage. This is a sensitive, competitive binding assay where test compounds were used to displace immobilized ATP-site binding probe ligands from kinases of interest. The amount of kinase that remained bound to the immobilized probe ligands on the solid support was quantified. Percentage inhibition data were was plotted on kinome trees using the web-based tool KinMap (http://www.kinhub.org/kinmap) ([60]).
measured-metric: inhibition at 10 µM (%)
I only need the number, in %, no unit after it.

Past entries and their recorded results:
Fc1cccc(COc2ccc(Nc3ncnc4c3CN(CCN3CCOCC3)CC4)cc2Cl)c1 [Compound 6]
0
C[C@@H](Oc1cc(-c2cnc3ccccn23)sc1C(N)=O)c1ccccc1Cl [Compound 8]
0
Clc1ccc(Nc2ncc(-c3ccccc3)s2)cc1 [Compound 10]
0

Recorded inhibition at 10 µM of Cc1ccc(O)cc1N(C)c1ccnc(Nc2cccc(S(N)(=O)=O)c2)n1 [Compound 4] , please.
99.5

Recorded inhibition at 10 µM of Nc1ncc2c(-c3ccncc3)c[nH]c2n1 [Compound 11] , please.
0

Recorded inhibition at 10 µM of c1ccc(COc2cccc(-c3ccnc4[nH]ccc34)c2)cc1 [Compound 9] , please.
0

Recorded inhibition at 10 µM of CN1CCN(c2ccc(Nc3nccc(-c4cnn5ncccc45)n3)cc2C#N)CC1 [Compound 1] , please.
91.8

Recorded inhibition at 10 µM of COc1ccc(Nc2nccc(-c3cnn4ncccc34)n2)cc1 [Compound 2] , please.
0

Recorded inhibition at 10 µM of COc1cc(Nc2nccc(-c3sc(N)nc3-c3cccc(NC(=O)c4c(F)cccc4F)c3)n2)cc(OC)c1OC [Compound 7] , please.
100

Recorded inhibition at 10 µM of Cc1ccc(O)cc1Nc1ccnc(Nc2cccc(C(N)=O)c2)n1 [Compound 3] , please.
99.6
